B1: glmS ribozyme (parent)
chain: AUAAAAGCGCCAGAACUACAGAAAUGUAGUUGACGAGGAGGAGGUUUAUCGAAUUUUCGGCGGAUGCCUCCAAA

variants of: B1; experiment: self-cleavage kobs at 10000 uM GlcN6P; higher = faster cleavage; RNA array; details: with glucosamine-6-phosphate
Fewer inactive variants are shown than the library holds.
Assignment: determine reported self-cleavage kobs at 10000 uM GlcN6P for the given variants.
Answers are plain numbers, in s⁻¹.

Here is how some variants turned out for self-cleavage kobs at 10000 uM GlcN6P.
Macromolecule Sequence	Result Units	Val
AUAAAAGCGCCAGAACUACAGAAAUGUAGUUGACGAGGAGGAGGUUUAUCGUAUUUUCGGCGGAUGCCUACAAA [A52U C70A]	s⁻¹	4.7e-05
AUAAAAGCGCCAGAAUUACAGAAAUGUAGUUGACGAGGAGGAGGUUUAUCGAAUUCUCGGCGGAUGCCUCCAAA [C16U U56C]	s⁻¹	0.00349
AUAAAAUCGUCAGAACUACAGAAAUGUAGUUGACAAGGAGGAGGUUUAUCGAAUUUUCGGCGGAUGCGUCCAAA [G7U C10U G35A C68G]	s⁻¹	0.000284
AUAAACGCGCCAGAACUACAGAAAUGUAGUUGACGAGGAGGAGGUUUAUGGAAUUUUCGGGGGAUGCCUCCAAA [A6C C50G C61G]	s⁻¹	0.000343
AUAAAAGCGCCAGAACUACAGAAAUGUAGUUGACGAGGAGGAGGUUUAUCGAAUUUUCUGCGGGUGCCUCCAAA [G59U A64G]	s⁻¹	5.92e-05

Batch request: self-cleavage kobs at 10000 uM GlcN6P for each of the following variants.
1. AUAAAAGCGCCAGCAUUACAGAAAUGUAGUUGACGAGGAGGAGGUUUAUCGAAUUUUCGGCGGAUGCCUCCAAA [A14C C16U]
2. AUAAAAGCGCCAGAACUACAGAAAUGUAGUUUACGAGGAGGAGGUUUAUCGAGUUUUCGGCGGAAGCCUCCAAA [G32U A53G U65A]

0.00118
5.88e-05

Batch request: self-cleavage kobs at 10000 uM GlcN6P for each of the following variants.
1. AUAAAAGCGCCAGAACUACAGAAAUGUAGUUGACGAGGAGGGGGUUUAUCGAAUUUUGGGCGGAUACCUCCAAA [A42G C58G G66A]
2. AUAAAAGCGCCGGAACUACAGAAAUGUAGUUGACGAGGAGGGGGUUUAUCGGAUUUUCGGCGGAUGCCUCCAAA [A12G A42G A52G]
3. AUAAAAGCGCCAGAACUACAGAAAUGUAGUUCACGAGGAGGAGGUUUAUCGAAUCUUCGGCGGAUGCCUCCAAA [G32C U55C]
4. AUAAAUGCGCCAGAACUACAGAAAUGUAGUUGACGAGGAGGGGGUUUAUCGAAUUUUCGGCGGAUGCCUCCAAA [A6U A42G]
5. AUAAAAGCGCCAGAACUACAGAAAUGUAGUUGACGAGGAGGAGGUUUAUCGUAUGUUCGGCGGAUGCCUCCAAA [A52U U55G]
6. AUAAAAGCGCCAGAACUACAGAAAUGUAGUGGACGAGGAGGAGAUUUAUCGAAUUUUCGGCGGAUGCCUCCAAA [U31G G44A]
7. AUAAAAGCGCUAGAGCUACAGAAAUGUAGUCGACGAGGAGGAGGUUUAUCGAAUUUUCGGCGGAUGGCUCCAAA [C11U A15G U31C C67G]

1: 5.14e-05; 2: 2.4e-05; 3: 6.12e-05; 4: 0.00038; 5: 0.000221; 6: 9.7e-05; 7: 6.25e-05
